Hello, the source for this data is patent US20200354457A1, in case you need it.

- measured target: T1, murine LAG3-Fc antigen (R&D Systems, 3328-L3-050) (murine, UniProt Q61790 24-442)
- T1 construct: Bought reagent
- T1 sequence (looked up): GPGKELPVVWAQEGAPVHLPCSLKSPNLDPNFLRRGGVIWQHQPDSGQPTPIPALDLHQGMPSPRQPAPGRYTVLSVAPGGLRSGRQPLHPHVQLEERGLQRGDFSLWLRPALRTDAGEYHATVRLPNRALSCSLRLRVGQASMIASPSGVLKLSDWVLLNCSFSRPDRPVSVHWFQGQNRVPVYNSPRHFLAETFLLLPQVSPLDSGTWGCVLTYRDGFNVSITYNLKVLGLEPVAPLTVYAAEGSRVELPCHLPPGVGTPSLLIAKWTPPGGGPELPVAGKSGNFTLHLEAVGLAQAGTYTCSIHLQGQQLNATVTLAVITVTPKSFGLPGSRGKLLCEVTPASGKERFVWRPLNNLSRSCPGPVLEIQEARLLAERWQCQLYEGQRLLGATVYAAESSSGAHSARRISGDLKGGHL
- procedure details: ELISA using murine LAG3-Fc antigen

[
  {
    "binder": "bivalent 17D7 aVH-Fc (Fc fusion) EVQLVESGGGLVQPGGSLRLSCAASGFNIKDTCIGWVRRAPGKGTELVAEICTDIGYTRYADSVKGRFTISADTSKNTAYLQMNSLRAEDTAVYYCAAGEGSSGFHYWGQGTTVTVSSGGGGSGGGGSDKTHTCPPCPAPEAAGGPSVFLFPPKPKDTLMISRTPEVTCVVVDVSHEDPEVKFNWYVDGVEVHNAKTKPREEQYNSTYRVVSVLTVLHQDWLNGKEYKCKVSNKALGAPIEKTISKAKGQPREPQVYTLPPSRDELTKNQVSLTCLVKGFYPSDIAVEWESNGQPENNYKTTPPVLDSDGSFFLYSKLTVDKSRWQQGNVFSCSVMHEALHNHYTQKSLSLSPGK",
    "binding result": "no binding"
  },
  {
    "binder": "bivalent P9G1 aVH-Fc (Fc fusion) EVQLVESGGGLVQPGGSLRLSCAASGFNIKDTCIGWVRRAPGKGTELVAEICQDIGYTRYADSVKGRFTISADTSKNTAYLQMNSLRAEDTAVYYCAGEEGATNFKYWGQGTTVTVSSGGGGSGGGGSDKTHTCPPCPAPEAAGGPSVFLFPPKPKDTLMISRTPEVTCVVVDVSHEDPEVKFNWYVDGVEVHNAKTKPREEQYNSTYRVVSVLTVLHQDWLNGKEYKCKVSNKALGAPIEKTISKAKGQPREPQVYTLPPSRDELTKNQVSLTCLVKGFYPSDIAVEWESNGQPENNYKTTPPVLDSDGSFFLYSKLTVDKSRWQQGNVFSCSVMHEALHNHYTQKSLSLSPGK",
    "binding result": "no binding"
  }
]
